Each entry below carries its recorded NADPH fluorescence slope.
experimental.system: Voltage-gated potassium channel subunit beta-2 (Rattus norvegicus)
assay.details: enhancers of rat Kvbeta2 NADPH turnover – biochemical, NADPH fluorescence, primary screen (AID 623);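 also: fluorescence intensity change per second fitted from 20 to 320 s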
condition.parameters: Recombinant KvBeta, NADPH fluorescence decrease slope, 10 min; at 10 µM; active compounds read low
No unit in the answer, only the number.

Example molecules with recorded NADPH fluorescence slope:
For this molecule ( C=CCSc1nnc(Cc2c(C)[nH]c3ccccc23)o1 ), measured NADPH fluorescence slope is -6e-05

For this molecule ( COCCn1c(=O)[nH]c2cc(C(=O)N3CCN(c4ccccc4OC)CC3)ccc2c1=O ), measured NADPH fluorescence slope is 9.4e-06

For this molecule ( O=c1cc(CSc2nnnn2-c2ccccc2)nc2scc(-c3ccccc3)n12 ), measured NADPH fluorescence slope is -1.1e-05

For this molecule ( COc1cc2c(cc1OC)CN(Cc1nc3ccsc3c(=O)[nH]1)CC2 ), measured NADPH fluorescence slope is -3.9e-05

For this molecule ( O=C(CN(Cc1ccco1)C(=O)c1cc(=O)[nH]c2ccccc12)Nc1ccccc1Br ), measured NADPH fluorescence slope is -4.1e-05

For this molecule ( COCCCNC(=O)CC1Oc2ccccc2NC1=O (stereo unspecified) ), measured NADPH fluorescence slope is -5.2e-05

For this molecule ( Cc1ccc(OCC(O)Cn2c(NCCc3ccccc3)nc3c2c(=O)[nH]c(=O)n3C)cc1 (stereo unspecified) ), measured NADPH fluorescence slope is 5.3e-06

For this molecule ( CC(C)NC(=O)Nc1cccs1 ), measured NADPH fluorescence slope is -5.6e-05

---
For this molecule ( CC1CC(C)CN(CC(=O)Nc2ccc(S(N)(=O)=O)cc2)C1 (stereo unspecified) ), measured NADPH fluorescence slope is -3e-05

For this molecule ( CCOC(=O)N1CCC(NC(=O)c2ccc3c(c2)N(CC)CCS3)CC1 ), measured NADPH fluorescence slope is -5.8e-06

For this molecule ( COCCCn1c(=N)c(C(=O)NCC2CCCO2)cc2c(=O)n3cccc(C)c3nc21 (stereo unspecified) ), measured NADPH fluorescence slope is -1.3e-05

For this molecule ( CCn1c(=O)cc(SCC(=O)NCCN2CCN(Cc3ccccc3)CC2)c2ccccc21 ), measured NADPH fluorescence slope is 3.3e-05

For this molecule ( CCC12CN3CC(CC)(CN(C1)C3c1ccc(OC(C)C)cc1)C2=O (stereo unspecified) ), measured NADPH fluorescence slope is -0.000143

For this molecule ( Cn1c(=O)c2c(nc(SCCCC#N)n2Cc2c(F)cccc2Cl)n(C)c1=O ), measured NADPH fluorescence slope is -6.6e-06

For this molecule ( Cc1ccc(Nc2cc(-n3nc(C)cc3C)ncn2)cc1 ), measured NADPH fluorescence slope is -3.4e-05

For this molecule ( C=CCNC(=O)c1ccc(Cl)cc1Cl ), measured NADPH fluorescence slope is -4.6e-05

For this molecule ( N#Cc1nc(COc2ccccc2)oc1NCCN1CCOCC1 ), measured NADPH fluorescence slope is 2.2e-05

For this molecule ( COC(=O)c1ccc2ncccc2c1 ), measured NADPH fluorescence slope is -8.5e-05

For this molecule ( Cc1ccc(S(=O)(=O)N2CCCC2C(=O)n2nc(C)cc2C)cc1 (stereo unspecified) ), measured NADPH fluorescence slope is -4.4e-05

For this molecule ( Cc1ccc2nc3c(cc2c1)CN(Cc1ccco1)C(=NCC1CCCO1)S3 (stereo unspecified) ), measured NADPH fluorescence slope is -6.6e-05

For this molecule ( Cc1cccc2cc(CN(Cc3nnnn3Cc3ccco3)C3CCCC3)c3nnnn3c12 ), measured NADPH fluorescence slope is 3.4e-05

For this molecule ( Cc1ccc(S(=O)(=O)NCCC(=O)OCn2nnc3ccccc3c2=O)cc1 ), measured NADPH fluorescence slope is -4.9e-05

For this molecule ( CC1CCC(NC(=O)C2CCN(c3cnccn3)CC2)CC1 (stereo unspecified) ), measured NADPH fluorescence slope is -6.7e-05

For this molecule ( Cn1c(=O)c2c(nc(CN3CCc4ccccc4C3)n2Cc2cccc(Cl)c2)n(C)c1=O ), measured NADPH fluorescence slope is -4.8e-05

For this molecule ( COc1ccc(C2C(C(C)=O)=C(O)C(=O)N2C)c(OC)c1 (stereo unspecified) ), measured NADPH fluorescence slope is -1.6e-05

For this molecule ( Cc1onc(-c2ccccc2)c1C(=O)N1CCN(C(=O)c2ccco2)CC1 ), measured NADPH fluorescence slope is -4.3e-05
